Each recorded value in this set is attributed to ChEMBL document CHEMBL4689842.

Test system: HEK-293T
method: Multiplex assay against HEK293T
Format: toxicity, cell-based
testConditions: human, 24 h, 10 µM, compound concentration 10 uM, replicate 1
Exam item: assign Criterion met to entries whose Population Pyknosed Nuclei (%) is below 40% and Criterion not met to entries at or above 40%. Note that a value of exactly 40% receives Criterion not met.

Is the reported Population Pyknosed Nuclei (%) for CN(c1cc(C(F)(F)F)nc(OCCC(=O)O)n1)c1cccc2c1CCC2 strictly below 40%?
Criterion met

---

System: HEK-293T
method: Multiplex assay against HEK293T;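 for Population Tubulin-Different-Phenotype (%): share of the cells with healthy nuclei that show this phenotype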
Type: toxicity, cell-based
testConditions: human, 12 h, 10 µM, compound concentration 10 uM, replicate 2
Each entry below carries its reported Population Tubulin-Different-Phenotype (%).
Field: numeric (%). Do not append units.

compound	unitLabel	reported
Cc1c(Nc2ccc(S(=O)(=O)N3CCN(C)CC3)cc2F)nc2ccc(Nc3cnn(C4CC4)c3)cn2c1=O	%	7
CCCCCNC(=N)N/N=C/c1c[nH]c2ccc(OC)cc12.O=C(O)/C=C\C(=O)O [TEGASEROD MALEATE]	%	100
CCCc1cc(C)[nH]c(=O)c1CNC(=O)c1cc(-c2ccc(N3CCN(C(C)C)CC3)nc2)cc2c1cnn2C(C)C	%	100
CCOc1ccn(-c2ccc(F)cc2)c(=O)c1C(=O)Nc1ccc(Oc2ccnc(N)c2Cl)c(F)c1	%	5

Now consider the entry below.
Measured Population Tubulin-Different-Phenotype (%) of Cc1c(P(=S)(c2ccccc2)c2ccccc2)n2ccccc2[n+]1C/C=C/c1ccccc1.[Br-] : 90

---

Each entry below carries its reported Population Fragmented Nuclei (%).
System: U2OS
method: Multiplex assay against U2OS
Assay type: toxicity, cell-based
testConditions: human, 48 h, 1 µM, compound concentration 1 uM, replicate 1
Field: numeric (%). Do not append units.

Measured Population Fragmented Nuclei (%) of Cl.NC[C@@H]1O[C@H](C23CC4CC(CC(C4)C2)C3)Cc2c1ccc(O)c2O : 8

---

Each entry below carries its reported Total Cell Count.
Tested on: HEK-293T
method: Multiplex assay against HEK293T
Assay type: toxicity, cell-based
testConditions: human, 48 h, 10 µM, compound concentration 10 uM, replicate 2
// no unit string in output, number only

cpdSmiles	Total Cell Count
CCCc1cc(C)[nH]c(=O)c1CNC(=O)c1cc(-c2ccc(N3CCN(C(C)C)CC3)nc2)cc2c1cnn2C(C)C	148

Item Cl.NC[C@@H]1O[C@H](C23CC4CC(CC(C4)C2)C3)Cc2c1ccc(O)c2O was tested on HEK-293T; the reported Total Cell Count is 190

Item CN1CCN(Cc2ccc(-c3cnc4[nH]cc(-c5ccc6[nH]ccc6c5)c4c3)cc2)CC1 was tested on HEK-293T; the reported Total Cell Count is 158

---

Each entry below carries its reported Total Cell Count.
Tested on: HEK-293T
method: Multiplex assay against HEK293T
Type: toxicity, cell-based
testConditions: human, 24 h, 10 µM, compound concentration 10 uM, replicate 1
// no unit string in output, number only

Sample answers from the record:
compound	measurementType	reported
CC[C@@]1(O)C(=O)OCc2c1cc1n(c2=O)Cc2cc3ccccc3nc2-1	Total Cell Count	575
Cc1c(Nc2ccc(S(=O)(=O)N3CCN(C)CC3)cc2F)nc2ccc(Nc3cnn(C4CC4)c3)cn2c1=O	Total Cell Count	922
C[C@@H](Oc1cc(-n2cnc3ccc(CN4CCN(C)CC4)cc32)sc1C(N)=O)c1ccccc1C(F)(F)F	Total Cell Count	298

Measured Total Cell Count of N#CCNC(=O)c1ccc(-c2ccnc(Nc3ccc(N4CCOCC4)cc3)n2)cc1 : 423
